tested on: A2780; assay: Cellular proliferation assay (Alamar blue), A2780; type: cell-based; settings: Homo sapiens, A2780, A2780 cells; 10% FCS; 72 h with compound; Alamar blue 24 h; read-out: pIC50 A2780 (converted)
IC50: recorded values

Illustrative cases are given below, each with its answer.
MOLECULE	IC50
CN1CCN(c2ccc3cc2OCC(=O)N(C)CCCN(C)Cc2c[nH]c4ncnc(c24)N3)CC1 [Compound 84]	0.501 µM
COCCN(CCOc1ccc2cc1OCC(=O)N(C)CCCN(C)Cc1c[nH]c3ncnc(c13)N2)Cc1ccccc1 [Compound 141]	0.2 µM
COc1cc2cc(c1OC)OCC(=O)N(C)CCN(C)Cc1c[nH]c3ncnc(c13)N2 [Compound 96]	> 10 µM
CN1CCCN(C)C(=O)COc2cc(ccc2N2CCOCC2)Nc2ncnc3[nH]cc(c23)C1 [Compound 85]	1.58 µM
O=C1CCCCOc2cc(ccc2Cl)Nc2ncnc3[nH]cc(c23)CN2CCN1CC2 [Compound 104]	> 10 µM
COc1ccc2cc1OCC(=O)N(C)CCCN(Cc1ccccc1)Cc1c[nH]c3ncnc(c13)N2 [Compound 61]	> 10 µM
CN1CCCN(C)C(=O)CCc2cc(ccc2N2CCOCC2)Nc2ncnc3[nH]cc(c23)C1 [Compound 56]	> 10 µM

IC50 for COc1cc2cc(c1OC)CCC(=O)N(C)CCN(C)Cc1c[nH]c3ncnc(c13)N2 [Compound 47] ?
> 10 µM

----------
system: U87-MG; assay: Cellular proliferation assay (Alamar blue), U87-MG; type: cell-based; settings: Homo sapiens, U-87 MG; U87-MG cells; 10% FCS; 72 h with compound; Alamar blue 6 h; read-out: pIC50 U87MG (converted)
METRIC NAME: IC50 (µM)
Numbers only here, please. The scale is µM.

Below, each entry is followed by its recorded IC50 result.
CCOc1ccc2cc1OCC(=O)N(C)CCCN(C)Cc1c[nH]c3ncnc(c13)N2 2
COCCN(CCOc1ccc2cc1OCC(=O)N(C)CCCN(C)Cc1c[nH]c3ncnc(c13)N2)C(C)C 1
COc1ccc2cc1N(C)CC(=O)N(C)CCCN(C)Cc1c[nH]c3ncnc(c13)N2 3.16
CN1CCCN(C)C(=O)COc2cc(ccc2OCCCNc2ccc(Cl)cc2)Nc2ncnc3[nH]cc(c23)C1 3.16
COc1cc(NC(=O)COc2ccc3cc2OCC(=O)N(C)CCCN(C)Cc2c[nH]c4ncnc(c24)N3)cc(OC)c1OC 2.51

Look up IC50: `CCOCCCOc1ccc2cc1OCC(=O)N(C)CCCN(C)Cc1c[nH]c3ncnc(c13)N2`
2

Form field: reported IC50 of `CN1CCCN(C)C(=O)COc2cc(ccc2OCC(=O)NC2CCCCC2)Nc2ncnc3[nH]cc(c23)C1`
3.16

Name the reported IC50 value associated with the molecule `CN1CCCN(C)C(=O)COc2cc(ccc2Cl)Nc2ncnc3[nH]cc(c23)C1`
0.794

----------
Recorded melting point values for a group of compounds are listed next.
Field format: number, assumed °C, no unit text.

Before answering, review these 3 worked examples.
COMPOUND	UNIT	melting point
CN1CCCN(C)C(=O)COc2cc(ccc2OCC2CCN(Cc3ccccc3)CC2)Nc2ncnc3[nH]cc(c23)C1 [Compound 149]	°C	241
COCCOc1c(OC)cc2cc1OCC(=O)N(C)CCCN(C)Cc1c[nH]c3ncnc(c13)N2 [Compound 161]	°C	201.4
CN1CCCN(C)C(=O)COc2cc(ccc2OCCSc2ccc(Cl)cc2)Nc2ncnc3[nH]cc(c23)C1 [Compound 150]	°C	252.6

# ---- query compound ----
May I ask what melting point has been recorded for CN1CCCN(C)C(=O)COc2cc(ccc2OCCN(C)c2nccs2)Nc2ncnc3[nH]cc(c23)C1 [Compound 157] ?
232.2

----------
Listed molecules paired with reported IC50
test system: PC3; assay: Cellular proliferation assay (Alamar blue), PC3; format: cell-based; settings: Homo sapiens, PC-3, PC-3 cells; 10% FCS; 72 h with compound; Alamar blue 24 h; read-out: pIC50 PC-3 (converted)

MOLECULE	IC50
COc1cc2cc(c1OC)CCC(=O)N(C)CCN(C)Cc1c[nH]c3ncnc(c13)N2	> 10 µM

Param item = `CN1CCCN(C)C(=O)COc2cc(ccc2OCC2CCN(Cc3ccccc3)CC2)Nc2ncnc3[nH]cc(c23)C1` ; retrieve measured IC50.
1 µM

Form field: reported IC50 of `O=C1CCCOc2cc(ccc2Cl)Nc2ncnc3[nH]cc(c23)CN2CCN1CC2`
> 10 µM

Entry `CN1CCCN(C)C(=O)COc2cc(ccc2OCCN2CCCCC2)Nc2ncnc3[nH]cc(c23)C1` has what IC50?
2.51 µM

Quick one: IC50 for `COc1ccc2cc1OCC(=O)N1CCC[C@H]1CN(C)CCCc1c[nH]c3ncnc(c13)N2` ?
> 10 µM

// returns reported IC50 for input `O=C1CCCOc2cccc(c2)Nc2ncnc3[nH]cc(c23)CN2CCN1CC2`
> 10 µM

Given the molecule `O=C1CCCCOc2cccc(c2)Nc2ncnc3[nH]cc(c23)CN2CCN1CC2` , what is its reported IC50?
> 10 µM

Any idea what its IC50 is? The molecule is `COCCN(CCOc1ccc2cc1OCC(=O)N(C)CCCN(C)Cc1c[nH]c3ncnc(c13)N2)Cc1ccccc1`
3.16 µM

Param item = `CN1CCCN(C)C(=O)COc2cc(ccc2N2CCCC2)Nc2ncnc3[nH]cc(c23)C1` ; retrieve measured IC50.
3.16 µM

// IC50 lookup, key: `CN1CCN(C)C(=O)CCCCOc2cccc(c2)Nc2ncnc3[nH]cc(c23)C1`
> 10 µM

Value lookup for IC50; key = `CN1CCN(C)C(=O)CCc2cc(ccc2N2CCOCC2)Nc2ncnc3[nH]cc(c23)C1`
> 10 µM

----------
system: A2780; experiment: Cellular proliferation assay (Alamar blue), A2780; format: cell-based; details: Homo sapiens, A2780, A2780 cells; 10% FCS; 72 h with compound; Alamar blue 24 h; read-out: pIC50 A2780 (converted)
METRIC NAME: IC50

CC(C)OCCOc1ccc2cc1OCC(=O)N(C)CCCN(C)Cc1c[nH]c3ncnc(c13)N2 50.1 nM

Switching to the query record.
IC50 for `COc1ccc2cc1CCC(=O)N(C)CCN(C)Cc1c[nH]c3ncnc(c13)N2` ?
> 10000 nM

----------
system: PC3; assay: Cellular proliferation assay (Alamar blue), PC3; format: cell-based; settings: Homo sapiens, PC-3, PC-3 cells; 10% FCS; 72 h with compound; Alamar blue 24 h; read-out: pIC50 PC-3 (converted)
Entries annotated with measured IC50

Recorded IC50, per entry:
COMPOUND	IC50
CN1CCCN(C)C(=O)COc2cc(cc(C(F)(F)F)c2)Nc2ncnc3[nH]cc(c23)C1 [Compound 54]	> 10 µM
COc1ccc2cc1OCC(=O)N[C@@H](C)CN(C)CCCc1c[nH]c3ncnc(c13)N2 [Compound 28]	> 10 µM
COc1ccc2cc1CN1CCCC(C1)C(=O)N(C)CCCc1c[nH]c3ncnc(c13)N2 (centres unmarked) [Compound 35]	> 10 µM
COc1ccc2cc1OCC(=O)NCN(C)CCCc1c[nH]c3ncnc(c13)N2 [Compound 33]	> 10 µM
CCOCCOc1cc(OC)c2cc1OCC(=O)N(C)CCCN(C)Cc1c[nH]c3ncnc(c13)N2 [Compound 151]	> 10 µM
COc1ccc2cc1OCCCCC(=O)N1CCN(CC1)Cc1c[nH]c3ncnc(c13)N2 [Compound 103]	> 10 µM

For CN1CCCN(C)C(=O)COc2cc(ccc2OCCSc2nccn2C)Nc2ncnc3[nH]cc(c23)C1 [Compound 143] , what is its reported IC50?
5.01 µM

Fill in: IC50 of COc1cc2cc(c1OC)CN(C)CC(=O)N(C)CCCc1c[nH]c3ncnc(c13)N2 [Compound 72] is ___
> 10 µM

----------
system: H1299; assay: Cellular proliferation assay (Alamar blue), H1299; assay type: cell-based; details: Homo sapiens, NCI-H1299, H1299 cells; 10% FCS; 72 h with compound; Alamar blue 4 h; read-out: pIC50 H1299 (converted)
METRIC NAME: IC50

A selection of reference data follows.
MOLECULE	VALUE REPORTED
COc1cc2cc(c1OC)OCC(=O)N(C)CCN(C)Cc1c[nH]c3ncnc(c13)N2 [Compound 96]	> 10 µM
CN1CCCN(C)C(=O)COc2cc(ccc2OCCNc2nccs2)Nc2ncnc3[nH]cc(c23)C1 [Compound 156]	2 µM
COc1ccc2cc1OCC(=O)N(C)CCCN(Cc1ccncc1)Cc1c[nH]c3ncnc(c13)N2 [Compound 62]	> 10 µM
COCCN(CCOc1ccc2cc1OCC(=O)N(C)CCCN(C)Cc1c[nH]c3ncnc(c13)N2)Cc1ccccc1 [Compound 141]	1.26 µM
COc1ccc2cc1OCCNC(=O)CN(C)Cc1c[nH]c3ncnc(c13)N2 [Compound 22]	3.16 µM

Any idea what IC50 was measured for COc1ccc2cc1OCCCCCC(=O)N(C)CCCN(C)Cc1c[nH]c3ncnc(c13)N2 [Compound 18] ?
> 10 µM

Item under review: COc1cc2cc(c1OC)OCC(=O)N(C)CCCN(C)Cc1c[nH]c3ncnc(c13)N2 [Compound 57] . Reported IC50?
> 10 µM
